List of survival values.
tested on: Wild type; assay: S. aureus survival, RN4220 and DeltatarO strains – OD600, teichoic acid synthesis inhibitors, primary screen (AID 463173); settings: S. aureus RN4220 wild type/DeltatarO growth, OD600, 18 h, active compounds read low, screened at 18.75 µg/mL (by protocol)
Out of some 52,000 compounds screened, about 1,700 (3.3%) were called active. The entries come from a sample that favours actives as a whole.
# unit: % | format: bare number

Known results for compounds:
[
  {
    "Compound": "Cc1ccc(NC(=O)CSc2nc3nc(C)c(Cc4ccccc4)c(C)n3n2)cc1",
    "survival / %": 47
  },
  {
    "Compound": "CC(=O)Nc1ccc(OCC(O)CN2CCN(c3ccc(C)c(Cl)c3)CC2)cc1 (stereo not given)",
    "survival / %": 98
  },
  {
    "Compound": "COc1ccccc1N1CCN(CC(O)COc2ccc(Cl)c(C)c2)CC1 (stereo not given)",
    "survival / %": 66
  },
  {
    "Compound": "Cc1cc(OCC(O)CN2CCN(c3cccc(Cl)c3)CC2)ccc1Cl (stereo not given)",
    "survival / %": 0
  },
  {
    "Compound": "N#Cc1nc(COc2ccccc2Cl)oc1NCCc1ccccc1",
    "survival / %": 25
  }
]

Task: Specify survival for CN(CC(=O)NCc1ccccc1)S(=O)(=O)c1ccc2[nH]c3c(c2c1)CCCC3 and stop.
Result: 72

Task: Using known records, supply survival for CCc1ccc(NC(=O)CN2CCN(C3CCCCC3)C(=O)C2=O)cc1
Result: 77

Task: Note survival for the compound shown: Cc1nc2nc(SCC(=O)NCc3ccccc3)nn2c(C)c1Cc1ccccc1Cl
Result: 128

Task: Fill in reported survival for this entry: Cc1nc2nc(SCC(=O)NCCc3ccccc3)nn2c(C)c1Cc1c(F)cccc1Cl
Result: 65

Task: Identify the reported survival for the following entry. COc1ccc(NC(=O)C2CCN(C(=O)c3sc4nc[nH]c(=O)c4c3C)CC2)cc1Cl
Result: 85
